Assay system: TRPA1 receptor (Homo sapiens);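 also: values above 100 mean more active than the control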
Construct: expressed in transfected cells; host or cells: HEK cell line
Measurement protocol: cell-based
Set-up: dose or concentration left out as unconfirmed
Condition parameters: HEK293; percentage of the control (allyl isothiocyanate) calcium count; material dissolved in DMSO at 100 micromolar; HEK cells with TRPA1; pre-incubation; read-out: TRPA1 Pre-incubation
Label scheme for activation: lower than 50% is not met, 50% and above is met.

Molecule	Qualitative label
CC1=C(CC=O)C(C)(C)CCC1	met
CC(CC=O)CC(C)(C)C (centres unmarked)	met
COc1cc(C=O)ccc1OC(=O)C(C)C [Vanillin Isobutyrate]	not met

* * *

Measured activation, listed per entry.
Assay system: TRPA1 receptor (Homo sapiens, UniProt O75762);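 also: values above 100 mean more active than the control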
Construct: expressed in transfected cells; host or cells: HEK cell line
Sequence (O75762 whole entry): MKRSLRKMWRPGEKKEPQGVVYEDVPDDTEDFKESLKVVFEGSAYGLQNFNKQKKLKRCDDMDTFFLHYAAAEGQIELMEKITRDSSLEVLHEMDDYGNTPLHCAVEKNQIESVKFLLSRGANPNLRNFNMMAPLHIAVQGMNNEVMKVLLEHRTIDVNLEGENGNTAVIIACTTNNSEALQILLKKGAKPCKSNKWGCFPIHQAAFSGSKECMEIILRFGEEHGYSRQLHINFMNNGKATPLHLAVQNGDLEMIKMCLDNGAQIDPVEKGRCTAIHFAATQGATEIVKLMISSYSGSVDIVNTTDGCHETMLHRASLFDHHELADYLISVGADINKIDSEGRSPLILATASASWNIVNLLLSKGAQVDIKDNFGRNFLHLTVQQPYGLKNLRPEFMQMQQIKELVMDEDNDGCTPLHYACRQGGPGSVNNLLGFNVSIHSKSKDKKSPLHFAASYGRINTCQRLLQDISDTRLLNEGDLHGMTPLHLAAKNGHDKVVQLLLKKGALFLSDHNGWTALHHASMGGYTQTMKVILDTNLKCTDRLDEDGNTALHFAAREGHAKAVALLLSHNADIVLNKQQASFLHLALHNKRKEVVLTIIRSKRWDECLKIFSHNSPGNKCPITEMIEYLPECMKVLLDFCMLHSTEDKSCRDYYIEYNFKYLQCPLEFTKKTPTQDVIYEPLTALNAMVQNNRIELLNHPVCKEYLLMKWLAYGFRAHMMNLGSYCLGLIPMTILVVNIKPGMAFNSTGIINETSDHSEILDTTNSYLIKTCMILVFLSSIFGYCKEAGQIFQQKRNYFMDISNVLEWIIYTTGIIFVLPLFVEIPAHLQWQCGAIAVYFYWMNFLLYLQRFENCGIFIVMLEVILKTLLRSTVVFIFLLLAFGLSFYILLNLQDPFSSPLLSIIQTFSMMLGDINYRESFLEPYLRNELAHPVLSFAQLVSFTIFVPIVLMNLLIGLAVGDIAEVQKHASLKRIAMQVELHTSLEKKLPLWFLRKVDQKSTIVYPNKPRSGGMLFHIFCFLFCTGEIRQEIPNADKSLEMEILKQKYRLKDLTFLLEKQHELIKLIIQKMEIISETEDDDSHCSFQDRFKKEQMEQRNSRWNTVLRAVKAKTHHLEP
Measurement protocol: cell-based
Parameters: dose or concentration left out as unconfirmed
Condition parameters: HEK293; percentage of the control (allyl isothiocyanate) calcium count; material dissolved in DMSO at 100 micromolar; HEK cells with TRPA1; pre-incubation; read-out: TRPA1 Pre-incubation
Method: The term “TRPA1 activator” as used herein refers to any component which at a concentration of 1 mM gives a calcium flux count of at least 1000 counts above the background level of calcium present in the cell according to the FLIPR method as discussed herein. The term “count” is defined as the change in fluorescence of the transfected cell lines due to the influx of calcium across the cell membrane, which reacts with the calcium sensitive dye present within the cells. […]
Observed property: activation (%)

Compound	Observed property	Observed result
C=CCOC(=O)CCC1CCCCC1 [Allyl Cyclohexanepropionate]	activation	81.7
COC(C=C(C)CCC=C(C)C)OC	activation	78
CCCC(=O)OCc1ccccc1 [Benzyl Butyrate]	activation	58.7
CCOC(=O)c1ccccc1 [Ethyl Benzoate]	activation	60.3
O=CC=Cc1ccccc1	activation	-1.2
CC(C)=CCC/C(C)=C/CO	activation	113
CCCCCO	activation	85.9
CCCC(C)=O	activation	90.1
